Kindly state inhibition at 1 µM for each of the entries shown.
Molecular target: PI3K (p110α (E542K)/p85α) (Homo sapiens (Human), UniProt P42336, E542K)
Sequence (P42336 whole entry E542K): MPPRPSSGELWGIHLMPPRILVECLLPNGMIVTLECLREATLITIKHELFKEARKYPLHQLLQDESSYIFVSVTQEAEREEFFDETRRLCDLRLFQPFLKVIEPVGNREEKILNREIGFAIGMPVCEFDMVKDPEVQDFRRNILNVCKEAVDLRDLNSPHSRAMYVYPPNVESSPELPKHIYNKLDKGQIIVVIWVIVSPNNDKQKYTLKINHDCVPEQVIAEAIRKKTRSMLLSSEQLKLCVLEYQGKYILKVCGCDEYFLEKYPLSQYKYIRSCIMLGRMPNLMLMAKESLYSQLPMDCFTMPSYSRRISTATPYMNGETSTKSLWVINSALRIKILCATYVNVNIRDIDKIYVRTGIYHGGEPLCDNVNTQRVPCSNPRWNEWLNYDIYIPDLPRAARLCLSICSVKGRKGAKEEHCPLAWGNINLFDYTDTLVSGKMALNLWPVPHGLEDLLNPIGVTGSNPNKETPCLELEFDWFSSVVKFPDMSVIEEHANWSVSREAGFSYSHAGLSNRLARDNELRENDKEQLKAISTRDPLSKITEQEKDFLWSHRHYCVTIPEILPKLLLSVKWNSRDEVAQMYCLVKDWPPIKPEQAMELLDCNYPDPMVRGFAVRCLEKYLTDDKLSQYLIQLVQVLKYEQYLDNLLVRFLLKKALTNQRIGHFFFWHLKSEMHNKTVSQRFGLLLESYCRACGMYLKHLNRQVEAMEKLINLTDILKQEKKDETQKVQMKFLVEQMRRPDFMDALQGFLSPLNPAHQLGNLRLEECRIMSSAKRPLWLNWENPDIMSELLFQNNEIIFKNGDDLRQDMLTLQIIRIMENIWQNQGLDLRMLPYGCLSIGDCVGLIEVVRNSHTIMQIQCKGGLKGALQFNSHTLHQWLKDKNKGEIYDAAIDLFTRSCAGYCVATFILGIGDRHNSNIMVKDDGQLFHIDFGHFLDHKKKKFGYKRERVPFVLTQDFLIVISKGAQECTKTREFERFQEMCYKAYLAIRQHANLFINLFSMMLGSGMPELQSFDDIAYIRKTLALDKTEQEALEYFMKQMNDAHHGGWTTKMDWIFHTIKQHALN
Sequence (P27986 whole entry partner): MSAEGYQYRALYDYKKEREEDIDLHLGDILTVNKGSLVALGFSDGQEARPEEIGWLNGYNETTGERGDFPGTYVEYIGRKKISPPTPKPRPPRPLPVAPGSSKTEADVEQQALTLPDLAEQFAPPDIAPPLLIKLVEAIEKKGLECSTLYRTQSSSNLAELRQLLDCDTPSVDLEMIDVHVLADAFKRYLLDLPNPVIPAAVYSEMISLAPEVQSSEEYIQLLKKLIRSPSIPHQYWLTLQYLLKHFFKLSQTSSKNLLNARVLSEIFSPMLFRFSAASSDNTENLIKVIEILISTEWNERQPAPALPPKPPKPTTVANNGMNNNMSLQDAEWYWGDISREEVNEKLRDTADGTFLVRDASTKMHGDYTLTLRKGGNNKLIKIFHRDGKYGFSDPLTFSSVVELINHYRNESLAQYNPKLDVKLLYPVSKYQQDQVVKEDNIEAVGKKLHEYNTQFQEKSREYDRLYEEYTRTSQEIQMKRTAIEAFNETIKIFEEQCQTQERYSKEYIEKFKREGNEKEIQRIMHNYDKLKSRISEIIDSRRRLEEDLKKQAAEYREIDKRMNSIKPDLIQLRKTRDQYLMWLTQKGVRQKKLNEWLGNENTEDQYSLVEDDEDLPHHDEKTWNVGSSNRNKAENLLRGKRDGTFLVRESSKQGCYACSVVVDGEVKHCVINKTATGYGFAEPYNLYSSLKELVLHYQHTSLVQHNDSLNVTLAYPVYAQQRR
Test: Lipid kinase selectivity panel (Reaction Biology)
Type: biochemical
Conditions: 1 μM compound, single dose duplicates, 10 μM ATP; read-out: Percent inhibition relative to DMSO control, PI3K (p110α (E542K)/p85α)
Experimental: The compounds of the present invention were tested in a standard lipid kinase selectivity panel: 16 other lipid kinases (Reaction Biology, Malvern, PA, USA), under conditions of non-disclosure, non-dissemination, and non-use. In brief, compounds (see Table 2) were tested at in single dose duplicates at 1 μM against lipid kinases, including PI3Kα, PI3Kβ, and PI3Kδ, and reactions were carried out at 10 μM ATP.
Express the result in % but write the number alone.

Exercise: Entry COC(=O)Nc1cc(-c2cc(N3CCCC[C@@H]3C)[nH]c(=O)c2)c(C)cn1 has what inhibition at 1 µM?
Key: -5

Exercise: How about this molecule: Cc1cnc(NC(=O)C2CC2)cc1-c1cc(N2CCCC[C@@H]2C(F)(F)F)[nH]c(=O)c1
Key: -3

Exercise: Repeat with O=C(Nc1cc(-c2cc(N3CCCC[C@@H]3C(F)(F)F)[nH]c(=O)c2)c(Cl)cn1)C1CC1
Key: -2

Exercise: // next record COC(=O)Nc1cc(-c2cc(N3CCCC[C@@H]3C(F)(F)F)[nH]c(=O)c2)c(CF)cn1
Key: -1

Exercise: How about this molecule: COC(=O)Nc1cc(-c2cc(N3CCCC[C@@H]3C(F)(F)F)[nH]c(=O)c2)c(C)cn1
Key: 4

Exercise: Next entry: Cc1nccc(Nc2cc(-c3cc(N4CCCC[C@@H]4C(F)(F)F)[nH]c(=O)c3)c(C)cn2)n1
Key: 33

Exercise: Also, Cc1cnc(NC(=O)CCN2CCCC2)cc1-c1cc(N2CCCC[C@@H]2C(F)(F)F)[nH]c(=O)c1 please.
Key: -2

Exercise: Also Cc1cnc(NC(=O)CCN(C)C)cc1-c1cc(N2CCCC[C@@H]2C(F)(F)F)[nH]c(=O)c1 ?
Key: 1

Exercise: Now consider Cc1cnc(NC(=O)OC2CC3(CNC3)C2)cc1-c1cc(N2CCCC[C@@H]2C(F)(F)F)[nH]c(=O)c1 .
Key: -20

Exercise: What about this molecule? COC(=O)Nc1cc(-c2cc(-c3cccnc3C(F)(F)F)[nH]c(=O)c2)c(N)cn1
Key: -11

Exercise: COC(=O)Nc1cc(-c2cc(-c3cccnc3C(F)(F)F)[nH]c(=O)c2)c(C)cn1 , same question.
Key: 14

Exercise: Consider next the molecule CNC(=O)Nc1cc(-c2cc(N3CCCC[C@@H]3C(F)(F)F)[nH]c(=O)c2)c(C)cn1 in the same way.
Key: 0

Exercise: Same read-out for CNCC(=O)Nc1cc(-c2cc(N3CCCC[C@@H]3C(F)(F)F)[nH]c(=O)c2)c(C)cn1 ?
Key: -4

Exercise: Quick one: Cc1cnc(NC(=O)CC2CNCC2(F)F)cc1-c1cc(N2CCCC[C@@H]2C(F)(F)F)[nH]c(=O)c1 (stereo partly drawn)
Key: -4

Exercise: What about COC(=O)Nc1cc(-c2cc(N3CCCC[C@@H]3C(F)(F)F)[nH]c(=O)c2)c(N)cn1 ?
Key: -5

Recorded values, source patent US20250236609A1.
